- Substrate: NC(=O)C[C@H](N)C(=O)O
- Procedure Details: Nessler reagent assay of ammonia, Michaelis-Menten fit
- Assay type: biochemical, Thermococcus litoralis
- Study Conditions: pH 10, 80 °C, 0.5-18.0 mM L-asparagine, free enzyme
Please respond with reported kcat for every item in the list.
Hey, just the number and the unit after it is fine.

Sure, the documented kcat for L-asparaginase Tli10209 (Thermococcus litoralis DSM 5473; T70A) (protein) MSEKRKLERRGAEDMKRILIIGTGGTIASAKTDAGFKSVLTIDEILEKADIKLKNGYEIDTRNILNIDSALIQPEDWERIAKEVYKALEDYDGIVITHGTDTLAYTASMLTFMIRGINKPVVLTGSMRPVTEEESDAPRNLKAAIRFAMEDVSGIFVAFMDKIMLGCRTSKIRALGLNAFMSINYPDVAYVKGEEVIYNLPQKRFKPKGEPVLDTKYEPRVVFIRLTPGLDGNAIDALVKAGYRGIVLEGYGAGGIPYRKRDILSKIREITPQIPVVMTTQALYDGVDLTKYEVGRKALEAGIIPAKDMTKETTITKLMWALGHTKNVEEVKEIMHTNYADEIEG is 4150 s⁻¹

Value of measured kcat for the entry L-asparaginase Tli10209 (Thermococcus litoralis DSM 5473; F36Y/T70A) (protein) MSEKRKLERRGAEDMKRILIIGTGGTIASAKTDAGYKSVLTIDEILEKADIKLKNGYEIDTRNILNIDSALIQPEDWERIAKEVYKALEDYDGIVITHGTDTLAYTASMLTFMIRGINKPVVLTGSMRPVTEEESDAPRNLKAAIRFAMEDVSGIFVAFMDKIMLGCRTSKIRALGLNAFMSINYPDVAYVKGEEVIYNLPQKRFKPKGEPVLDTKYEPRVVFIRLTPGLDGNAIDALVKAGYRGIVLEGYGAGGIPYRKRDILSKIREITPQIPVVMTTQALYDGVDLTKYEVGRKALEAGIIPAKDMTKETTITKLMWALGHTKNVEEVKEIMHTNYADEIEG : 2930 s⁻¹
